The reported measurements were obtained from the supplement of paper PMC11208160.

- test protocol: recombinant UMI read abundance after kanamycin selection (control-corrected) (log10(CPM+1)); higher = more efficient recombination; extreme values may be limits of the assay; sequences stand for … in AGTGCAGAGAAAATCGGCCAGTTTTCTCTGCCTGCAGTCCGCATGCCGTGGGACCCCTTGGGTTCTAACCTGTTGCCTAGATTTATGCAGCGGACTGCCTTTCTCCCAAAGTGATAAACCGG…AGGTTGGTTTCACT; site = the 11-nt donor;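 further: IS621 bridge recombinase in Escherichia coli cells against a fixed T5 target plasmid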
Each entry falls in a class defined on recombinant UMI read abundance (log10); the bands are small value (below 0.02), mid value (0.02 to below 0.3), large value (0.3 or more)

biopolymer_sequence="CATTTCTCATGGACCGGTTTTCCCGGTAATCCGTATTTGTT (site CATTTCTCTAA)" label_value="large value"
biopolymer_sequence="CGTTTGTCATGGACCGGTTTTCCCGGTAATCCGTATTTGCT (site CGTTTGACTAG)" label_value="small value"
biopolymer_sequence="CAATTCCCATGGACCGGTTTTCCCGGTAATCCGTATTTGGT (site CAATTCCCTAA)" label_value="mid value"

**Query** Class label required: ACAGTGTCATGGACCGGTTTTCCCGGTAATCCGTATTTGCA (site ACAGTGTCTTG)
**Result** large value

**Query** Class label required: GGCGACCCATGGACCGGTTTTCCCGGTAATCCGTATTTGTT (site GGCGACCCTAA)
**Result** mid value

**Query** Class label required: AGACAGCCATGGACCGGTTTTCCCGGTAATCCGTATTTGCA (site AGACAGCCTTG)
**Result** large value

**Query** Class label required: CGACGACCATGGACCGGTTTTCCCGGTAATCCGTATTTGGG (site CGAGGACCTCC)
**Result** mid value

**Query** Class label required: CCTAATTCATGGACCGGTTTTCCCGGTAATCCGTATTTGGC (site CCTAATTCTGC)
**Result** small value

**Query** Class label required: CAATCATCATGGACCGGTTTTCCCGGTAATCCGTATTTGCC (site CGATCATCTAG)
**Result** small value

**Query** Class label required: CCGTTTACATGGACCGGTTTTCCCGGTAATCCGTATTTGCT (site CCGTTTACTCG)
**Result** small value

**Query** Class label required: CAATTCCCATGGACCGGTTTTCCCGGTAATCCGTATTTGCC (site CAATTCCCTCG)
**Result** small value
